# Tested target: Recombinant MAPKAPK2 (MK-2) (Homo sapiens, UniProt P49137)
# Sequence (P49137 whole entry, species assumed): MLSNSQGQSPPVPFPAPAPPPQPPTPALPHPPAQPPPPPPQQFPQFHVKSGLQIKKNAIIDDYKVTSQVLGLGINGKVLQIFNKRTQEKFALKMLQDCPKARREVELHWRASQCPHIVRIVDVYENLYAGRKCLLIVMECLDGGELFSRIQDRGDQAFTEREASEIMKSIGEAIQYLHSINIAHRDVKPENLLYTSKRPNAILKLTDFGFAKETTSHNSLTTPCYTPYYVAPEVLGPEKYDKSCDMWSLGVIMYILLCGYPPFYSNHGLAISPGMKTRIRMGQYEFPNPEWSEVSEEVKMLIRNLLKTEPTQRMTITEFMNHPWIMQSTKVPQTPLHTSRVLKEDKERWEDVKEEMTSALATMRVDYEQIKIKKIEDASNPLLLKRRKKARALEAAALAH
# Assay procedure: Determination of MK-2 IC50 (phosphorylation of HSP-peptide, anion exchange resin capture assay)
# Assay type: biochemical
# Test settings: MK-2 Avg. IC50, additional values are replicate IC50 experiments
Where a name gives a salt, the structure may show the parent alone.
Threshold-based label: IC50 under 7 µM gives 1 (yes), IC50 not under 7 µM gives 0 (no).

molecule="COc1ccc2[nH]c3c(c2c1)C1CCN(C1)C3C(=O)NCc1ccccc1 (stereo not shown) [compound 45, hydrochloride]" label="0 (no)"
molecule="COc1ccc2[nH]c3c(c2c1)C1CCN(C1)C3C(=O)OCCO (stereo not shown)" label="1 (yes)"
molecule="COc1ccc2[nH]c3c(c2c1)C1CCN(C1)C3C(=O)OC1CCCCC1 (stereo not shown) [trifluoroacetate]" label="0 (no)"
molecule="COc1ccc2[nH]c3c(c2c1)C1CCN(C1)C3C(=O)N(C)C (stereo not shown) [compound 46]" label="0 (no)"
molecule="CCCCCCOC(=O)C1c2[nH]c3ccc(OC)cc3c2C2CCN1C2 (stereo not shown) [trifluoroacetate]" label="0 (no)"
molecule="COc1ccc2[nH]c3c(c2c1)C1CCN(C1)C3C(=O)OCC(C)(C)C (stereo not shown) [hydrochloride]" label="0 (no)"
molecule="COc1ccc2[nH]c3c(c2c1)C1CCN(C1)C3C(N)=O (stereo not shown) [compound 48]" label="0 (no)"
molecule="COCCOC(=O)C1c2[nH]c3ccc(OC)cc3c2C2CCN1C2 (stereo not shown) [trifluoroacetate]" label="1 (yes)"
molecule="COc1ccc2[nH]c3c(c2c1)C1CCN(C1)C3C(=O)OCCSC (stereo not shown)" label="1 (yes)"
